# targetDesc: T1, human IL-10 receptor (hIL-10R alpha and beta chains) on HEK-Blue IL-10 reporter cells (human, UniProt Q13651 22-578; Q08334 20-325)
# T1 sequence 1: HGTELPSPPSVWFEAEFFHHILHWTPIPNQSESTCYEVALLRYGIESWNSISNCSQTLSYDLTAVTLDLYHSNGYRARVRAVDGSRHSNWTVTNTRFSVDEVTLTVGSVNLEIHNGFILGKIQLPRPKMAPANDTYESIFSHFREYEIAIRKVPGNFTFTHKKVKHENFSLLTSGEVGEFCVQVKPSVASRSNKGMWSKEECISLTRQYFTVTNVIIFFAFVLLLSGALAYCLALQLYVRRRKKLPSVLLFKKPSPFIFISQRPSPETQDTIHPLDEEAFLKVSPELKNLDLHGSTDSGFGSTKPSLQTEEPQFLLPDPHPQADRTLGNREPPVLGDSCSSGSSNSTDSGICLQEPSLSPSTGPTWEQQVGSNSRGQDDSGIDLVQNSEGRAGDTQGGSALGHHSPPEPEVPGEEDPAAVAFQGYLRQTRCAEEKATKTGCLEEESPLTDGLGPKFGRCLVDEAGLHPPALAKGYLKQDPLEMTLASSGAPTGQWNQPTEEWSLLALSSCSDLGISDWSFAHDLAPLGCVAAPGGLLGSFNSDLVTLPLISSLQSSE
# T1 sequence 2: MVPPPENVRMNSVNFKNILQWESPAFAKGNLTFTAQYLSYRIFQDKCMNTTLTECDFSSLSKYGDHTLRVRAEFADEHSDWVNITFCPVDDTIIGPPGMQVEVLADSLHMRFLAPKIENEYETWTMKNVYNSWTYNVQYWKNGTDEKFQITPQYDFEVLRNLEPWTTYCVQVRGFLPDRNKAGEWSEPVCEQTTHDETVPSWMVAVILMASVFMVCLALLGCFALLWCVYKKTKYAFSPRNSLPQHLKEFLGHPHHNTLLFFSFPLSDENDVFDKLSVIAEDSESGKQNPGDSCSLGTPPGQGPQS
# methodSummary: cell-based or functional assay
attributeMeasured: Abs 630 (25 nM)
Could you give the number and then its unit, please?

Some binders with known Abs 630 (25 nM) results, for comparison:
>  <binder>
IL10R binding molecule of SEQ ID NO: 349 (bispecific antibody) QVQLQESGGGSVQTGGSLRLSCAASGYTYLRGCMGWFRQAPGKEREGVAVMDVVGDRRSYIDSVKGRFTISRDNAANSVYLQMDNLKPEDTAMYYCTAGPNCVGWRSGLDYWGQGTQVTVSSGGGSQVQLQESGGGSVQAGGSLRLSCAASGYTYSMYCMGWFRQAPGKEREGVAQINSDGSTSYADSVKGRFTISKDNAKNTLYLQMNSLKPEDTAMYYCAADSRVYGGSWYERLCGPYTYEYNYWGQGTQVTVSSASHHHHHH

>  <result>
0.46 Abs 630

$$$$
>  <binder>
IL10R binding molecule of SEQ ID NO: 343 (bispecific antibody) QVQLQESGGGSVQAGGSLRLSCAASGYSYSSYCMGWFRQAPGKEREGVATIDSDGMTRYADSVKGRFTISKDNAKNTLYLQMNSLKPEDTAMYYCAAPLYDCDSGAVGRNPPYWGQGTQVTVSSGGGSQVQLQESGGGSVQAGGSLRLSCAVSGYAYSTYCMGWFRQAPGKEREGVAAIDSGGSTSYADSVKGRFTISKDNAKNTLYLRMNSLKPEDTAMYYCAAVPPPPDGGSCLFLGPEIKVSKADFRYWGQGTQVTVSSASHHHHHH

>  <result>
0.46 Abs 630

$$$$
>  <binder>
IL10R binding molecule of SEQ ID NO: 318 (bispecific antibody) QVQLQESGGGSVQAGGSLRLSCAASGYTYSSYCMGWFRQAPGKEREGVAHIDSDGSTSYADSVKGRFTISKDNAKNTLYLQMNSLKPEDTAMYYCAADPIPGPGYCDGGPNKYWGQGTQVTVSSGGGSQVQLQESGGGSVQAGGSLRLSCAASGYSNCSYDMTWYRQAPGKEREFVSAIHSDGSTRYADSVKGRFFISQDNAKNTVYLQMNSLKPEDTAMYYCKTDPLHCRAHGGSWYSVRANYWGQGTQVTVSSASHHHHHH

>  <result>
0.5 Abs 630

$$$$
>  <binder>
IL10R binding molecule of SEQ ID NO: 290 (bispecific antibody) QVQLQESGGGSVQAGGSLRLSCTVSGYTYSSNCMGWFRQAPGKEREGVATIYTGGGNTYYADSVKGRFTISQDNAKNTVYLQMNNLKPEDTAMYYCAAEPLSRVYGGSCPTPTFDYWGQGTQVTVSSGGGSQVQLQESGGGSVQTGGSLRLSCAASGYTYLRGCMGWFRQAPGKEREGVAVMDVVGDRRSYIDSVKGRFTISRDNAANSVYLQMDNLKPEDTAMYYCTAGPNCVGWRSGLDYWGQGTQVTVSSASHHHHHH

>  <result>
0.49 Abs 630

$$$$

The binder listed as IL10R binding molecule of SEQ ID NO: 263 (bispecific antibody) QVQLQESGGGSVQAGGSLRLSCAASRFTYSSYCMGWFRQAPGKEREGVASIDSDGSTSYTDSVKGRFTISKDNAKNTLYLQMNSLKPEDTAMYYCALDLMSTVVPGFCGFLLSAGMDYWGKGTQVTVSSGGGSQVQLQESGGGSVQAGGSLRLSCAASGYTYSSGCMGWFRQAPGKEREAVAAINSDGSTSYADSVKGRFTISKDNAKNTLYLQMNSLKPEDTAMYYCAAEPYCSGGYPRWSVAEFGYWGQGTQVTVSSASHHHHHH shows Abs 630 (25 nM) equal to 1.77 Abs 630
